This collection of values is drawn from PubChem BioAssay.

Provide the recorded composite z-score for the entries that follow.
- measured_on: Follistatin (Homo sapiens) (UniProt P19883)
- Sequence (P19883 whole entry, looked up): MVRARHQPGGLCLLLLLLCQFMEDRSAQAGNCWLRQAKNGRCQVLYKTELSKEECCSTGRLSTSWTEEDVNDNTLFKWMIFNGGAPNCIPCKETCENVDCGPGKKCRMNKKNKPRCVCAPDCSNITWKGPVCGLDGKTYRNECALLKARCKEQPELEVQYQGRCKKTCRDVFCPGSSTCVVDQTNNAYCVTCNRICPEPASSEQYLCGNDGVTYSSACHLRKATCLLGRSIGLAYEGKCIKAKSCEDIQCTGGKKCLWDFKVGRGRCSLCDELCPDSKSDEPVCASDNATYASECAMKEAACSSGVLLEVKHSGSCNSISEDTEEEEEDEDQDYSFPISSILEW
- protocol: follistatin binders on small-molecule microarrays, primary screen, biochemical, small-molecule microarray, 635/667 nm fluorescence (AID 1132)
- assay_setup: FST binding, 635 nm fluorescence, higher = more signal
Numbers only.

# annotated cases, reported composite z-score shown
compound="O=C1C2C=CC(C(O)C=Cc3ccc([N+](=O)[O-])cc3)N(Nc3ccccc3)C2C(=O)N1c1ccccc1 (centres undefined)" endpoint_result=1.24
compound=[N-]=[N+]=NCc1ccccc1C[C@@]1(C(=O)N2CCCCC2)N=C(c2ccc(OCCCO)cc2)O[C@@H]1c1ccccc1CN=[N+]=[N-] endpoint_result=0.913

Give composite z-score for all compounds that follow.
1. NCCCCCNC(=O)[C@H]1C[C@H]2C(=O)N[C@@H](Cc3ccccc3)C(=O)N2[C@H]1c1ccc(O)cc1
2. NC(=O)N1C(=O)C2C(C1=O)C1C=C(CCCO)C2C(C2CC2)N1Cc1cccc(OC(F)(F)F)c1 (centres undefined)

Ans:
1.4
0.173
